assay: NCI Yeast Anticancer Drug Screen. Data for the mlh1 rad18 strain (AID 175); details: S. cerevisiae mlh1 rad18 strain growth inhibition; at 50.0 µM; active compounds read high
The panel holds about 79,000 compounds, 15% with a hit somewhere; the sample as a whole holds those more often.
Measurement Kind: growth inhibition (%)
Answer format: numeric, % implied, no suffix.

Consider the following illustrative entries.
1. COC1=Nc2ccccc2/C=C\c2ccccc21	69.5
2. CC(NC(=O)C(Cc1ccccc1)NC(=O)c1ccc[n+](Cc2ccccc2)c1)C(N)=O (stereo not drawn)	28.1
3. CCOC(=O)/C(C#N)=C/c1coc2cc(C)cc(C)c2c1=O	65.8
4. CCC1C(c2cccc(OC)c2O)c2cc3c(cc2OC1N1CCCC1)OCO3 (stereo not drawn)	-29.7
5. COc1ccccc1C(=O)c1ccc2ccccc2c1	42.3

Challenge: Quick one: growth inhibition of CC(=O)N1C(c2[nH]c3ccccc3c2Cc2ccccc2)CCN1c1ccccc1 (stereo not drawn) ?
Response given: 83.8

Challenge: Quick one: growth inhibition of OCCN=C1c2ccccc2C2C(c3ccccc31)C1c3ccccc3C(=NCCO)c3ccccc3C21 (stereo not drawn) ?
Response given: 82

Data provenance: PubChem BioAssay (NCI)
